# System: Streptococcus pyogenes SSI-9
# RUN DESCRIPTION: Antibacterial activity assay of bead-derived peptides (three concentrations)
# Assay type: cell-based
# Design: key: +++: inhibition by the 640-fold diluted peptide solution; ++: inhibition by the 160-fold diluted solution; +: inhibition by the 40-fold diluted solution; -: no inhibition
# EXPERIMENTAL CONTEXT: S. pyogenes, bead-derived peptide solution, three concentrations
Where a SMILES comes first, the peptide text is derived from it. [ ]: non-standard residue; d: D form. The star is where a group is joined. NHCH2CH2OH = OCCN*; For = O=C*

| COMPOUND | antibacterial activity |
| --- | --- |
| CNC(=O)C[C@@H](NC(=O)[C@H](Cc1c[nH]c2ccccc12)NC(=O)[C@H](NC(=O)[C@H](Cc1c[nH]c2ccccc12)NC(=O)[C@@H](CC(C)C)NC(=O)[C@H](Cc1c[nH]c2ccccc12)NC(=O)[C@@H](CC(C)C)NC(=O)[C@@H](NC(=O)[C@@H](CC(C)C)NC(=O)[C@H](C)NC(=O)[C@@H](CC(C)C)NC(=O)[C@H](C)NC(=O)CNC(=O)[C@@H](NC=O)C(C)C)C(C)C)C(C)C)C(=O)N[C@@H](Cc1c[nH]c2ccccc12)C(=O)NCCO [compound 2764] (For-VGA[dL]A[dL]V[dL]W[dL]W[dV]W[dD](NHMe)W-NHCH2CH2OH) | - |
| CC(C)C[C@@H](NC(=O)[C@H](Cc1c[nH]c2ccccc12)NC(=O)[C@H](NC(=O)[C@H](Cc1c[nH]c2ccccc12)NC(=O)[C@H](NC(=O)[C@H](Cc1c[nH]c2ccccc12)NC(=O)[C@H](NC(=O)[C@@H](NC(=O)[C@H](NC(=O)[C@H](C)NC(=O)[C@H](NC(=O)[C@H](C)NC(=O)CNC(=O)[C@@H](NC=O)C(C)C)C(C)C)C(C)C)C(C)C)C(C)C)C(C)C)C(C)C)C(=O)N[C@@H](Cc1c[nH]c2ccccc12)C(=O)NCCO [compound 1004] (For-VGA[dV]A[dV]V[dV]W[dV]W[dV]W[dL]W-NHCH2CH2OH) | + |
| CC(C)C[C@@H](NC(=O)[C@H](Cc1c[nH]c2ccccc12)NC(=O)[C@@H](CC(C)C)NC(=O)[C@H](Cc1c[nH]c2ccccc12)NC(=O)[C@H](NC(=O)[C@H](Cc1c[nH]c2ccccc12)NC(=O)[C@@H](CC(C)C)NC(=O)[C@@H](NC(=O)[C@H](NC(=O)[C@H](C)NC(=O)[C@H](NC(=O)[C@H](C)NC(=O)CNC(=O)[C@@H](NC=O)C(C)C)C(C)C)C(C)C)C(C)C)C(C)C)C(=O)N[C@@H](Cc1c[nH]c2ccccc12)C(=O)NCCO [compound 11146] (For-VGA[dV]A[dV]V[dL]W[dV]W[dL]W[dL]W-NHCH2CH2OH) | + |
| CC(C)C[C@@H](NC(=O)[C@H](Cc1c[nH]c2ccccc12)NC(=O)[C@H](NC(=O)[C@H](Cc1c[nH]c2ccccc12)NC(=O)[C@H](NC(=O)[C@@H](NC(=O)[C@H](NC(=O)[C@H](C)NC(=O)[C@H](NC(=O)[C@H](C)NC(=O)CNC(=O)[C@@H](NC=O)C(C)C)C(C)C)C(C)C)C(C)C)C(C)C)C(C)C)C(=O)N[C@@H](Cc1c[nH]c2ccccc12)C(=O)N[C@@H](C(=O)N[C@@H](Cc1c[nH]c2ccccc12)C(=O)NCCO)C(C)C [compound 676] (For-VGA[dV]A[dV]V[dV]W[dV]W[dL]W[dV]W-NHCH2CH2OH) | ++ |

* * *

# Tested on: Streptococcus pyogenes SSI-9
# RUN DESCRIPTION: Antibacterial activity assay of bead-derived peptides (three concentrations)
# Format: cell-based
# Parameters: key: +++: inhibition by the 640-fold diluted peptide solution; ++: inhibition by the 160-fold diluted solution; +: inhibition by the 40-fold diluted solution; -: no inhibition
# EXPERIMENTAL CONTEXT: S. pyogenes, bead-derived peptide solution, three concentrations
# Procedure: Each type of assay must be simplified and miniaturized to assess the activities of the library peptides in a 96-well format for the high-throughput screening. Next, the peptides in groups A and B were subjected to the antibacterial assay and structural determination. Three peptide concentrations were applied to evaluate the growth inhibition of S. pyogenes and determine the antibacterial activity. […] Finally, the structures of the peptides were determined. […]
Where a SMILES comes first, the peptide text is derived from it. [ ]: non-standard residue; d: D form. The star is where a group is joined. NHCH2CH2OH = OCCN*; For = O=C*

| COMPOUND | antibacterial activity |
| --- | --- |
| CNC(=O)C[C@@H](NC(=O)[C@@H](NC(=O)[C@@H](CC(C)C)NC(=O)[C@H](C)NC(=O)[C@@H](CC(C)C)NC(=O)[C@H](C)NC(=O)CNC(=O)[C@@H](NC=O)C(C)C)C(C)C)C(=O)N[C@@H](Cc1c[nH]c2ccccc12)C(=O)N[C@H](CC(C)C)C(=O)N[C@@H](Cc1c[nH]c2ccccc12)C(=O)N[C@H](CC(C)C)C(=O)N[C@@H](Cc1c[nH]c2ccccc12)C(=O)N[C@@H](C(=O)N[C@@H](Cc1c[nH]c2ccccc12)C(=O)NCCO)C(C)C [compound 6851] (For-VGA[dL]A[dL]V[dD](NHMe)W[dL]W[dL]W[dV]W-NHCH2CH2OH) | - |
| CC(C)C[C@@H](NC(=O)[C@H](C)NC(=O)[C@H](NC(=O)[C@H](C)NC(=O)CNC(=O)[C@@H](NC=O)C(C)C)[C@H](C)O)C(=O)N[C@H](C(=O)N[C@@H](C(=O)N[C@@H](Cc1c[nH]c2ccccc12)C(=O)N[C@@H](C(=O)N[C@@H](Cc1c[nH]c2ccccc12)C(=O)N[C@@H](C(=O)N[C@@H](Cc1c[nH]c2ccccc12)C(=O)N[C@H](CC(C)C)C(=O)N[C@@H](Cc1c[nH]c2ccccc12)C(=O)NCCO)C(C)C)[C@H](C)O)C(C)C)C(C)C [compound 7225] (For-VGA[dT]A[dL]V[dV]W[dT]W[dV]W[dL]W-NHCH2CH2OH) | - |
| CC(C)C[C@@H](NC(=O)[C@H](C)NC(=O)CNC(=O)[C@@H](NC=O)C(C)C)C(=O)N[C@@H](C)C(=O)N[C@@H](C(=O)N[C@H](C(=O)N[C@@H](C(=O)N[C@@H](Cc1c[nH]c2ccccc12)C(=O)N[C@H](CC(C)C)C(=O)N[C@@H](Cc1c[nH]c2ccccc12)C(=O)N[C@H](CC(C)C)C(=O)N[C@@H](Cc1c[nH]c2ccccc12)C(=O)N[C@H](CC(C)C)C(=O)N[C@@H](Cc1c[nH]c2ccccc12)C(=O)NCCO)C(C)C)C(C)C)C(C)C [compound 6292] (For-VGA[dL]A[dV]V[dV]W[dL]W[dL]W[dL]W-NHCH2CH2OH) | ++ |
| CC(C)C[C@@H](NC(=O)[C@H](C)NC(=O)[C@H](NC(=O)[C@H](C)NC(=O)CNC(=O)[C@@H](NC=O)C(C)C)C(C)C)C(=O)N[C@H](C(=O)N[C@@H](C(=O)N[C@@H](Cc1c[nH]c2ccccc12)C(=O)N[C@H](CC(C)C)C(=O)N[C@@H](Cc1c[nH]c2ccccc12)C(=O)N[C@H](CC(C)C)C(=O)N[C@@H](Cc1c[nH]c2ccccc12)C(=O)N[C@@H](C(=O)N[C@@H](Cc1c[nH]c2ccccc12)C(=O)NCCO)C(C)C)[C@H](C)O)C(C)C [compound 8984] (For-VGA[dV]A[dL]V[dT]W[dL]W[dL]W[dV]W-NHCH2CH2OH) | - |

* * *

# Test system: Streptococcus pyogenes SSI-9
# EXPERIMENTAL CONTEXT: S. pyogenes
Where a SMILES comes first, the peptide text is derived from it. [ ]: non-standard residue; d: D form. The star is where a group is joined. NHCH2CH2OH = OCCN*; For = O=C*
Listed compounds paired with reported antibacterial activity/MIC

| COMPOUND | TEST TARGET | antibacterial activity/MIC (µg/mL) |
| --- | --- | --- |
| CC(C)C[C@@H](NC(=O)[C@H](Cc1c[nH]c2ccccc12)NC(=O)[C@@H](CC(C)C)NC(=O)[C@H](Cc1c[nH]c2ccccc12)NC(=O)[C@@H](CC(C)C)NC(=O)[C@H](Cc1c[nH]c2ccccc12)NC(=O)[C@H](NC(=O)[C@@H](NC(=O)[C@H](NC(=O)[C@H](C)NC(=O)[C@H](NC(=O)[C@H](C)NC(=O)CNC(=O)[C@@H](NC=O)C(C)C)C(C)C)C(C)C)C(C)C)C(C)C)C(=O)N[C@@H](Cc1c[nH]c2ccccc12)C(=O)NCCO [A1] (For-VGA[dV]A[dV]V[dV]W[dL]W[dL]W[dL]W-NHCH2CH2OH) | Streptococcus pyogenes SSI-9 | 0.015 |
| CC(C)C[C@@H](NC(=O)[C@H](C)NC(=O)[C@H](NC(=O)[C@H](C)NC(=O)CNC(=O)[C@@H](NC=O)C(C)C)C(C)C)C(=O)N[C@H](C(=O)N[C@@H](C(=O)N[C@@H](Cc1c[nH]c2ccccc12)C(=O)N[C@@H](C(=O)N[C@@H](Cc1c[nH]c2ccccc12)C(=O)N[C@H](CC(C)C)C(=O)N[C@@H](Cc1c[nH]c2ccccc12)C(=O)N[C@H](CC(C)C)C(=O)N[C@@H](Cc1c[nH]c2ccccc12)C(=O)NCCO)C(C)C)C(C)C)C(C)C [B02] (For-VGA[dV]A[dL]V[dV]W[dV]W[dL]W[dL]W-NHCH2CH2OH) | Streptococcus pyogenes SSI-9 | 0.13 |
